Molecular target: PTPN2 (B16F10.4 cells) (Mus musculus)
Construct: HiBiT; host or cells: B16F10.4
Sequence (Q06180 1-406): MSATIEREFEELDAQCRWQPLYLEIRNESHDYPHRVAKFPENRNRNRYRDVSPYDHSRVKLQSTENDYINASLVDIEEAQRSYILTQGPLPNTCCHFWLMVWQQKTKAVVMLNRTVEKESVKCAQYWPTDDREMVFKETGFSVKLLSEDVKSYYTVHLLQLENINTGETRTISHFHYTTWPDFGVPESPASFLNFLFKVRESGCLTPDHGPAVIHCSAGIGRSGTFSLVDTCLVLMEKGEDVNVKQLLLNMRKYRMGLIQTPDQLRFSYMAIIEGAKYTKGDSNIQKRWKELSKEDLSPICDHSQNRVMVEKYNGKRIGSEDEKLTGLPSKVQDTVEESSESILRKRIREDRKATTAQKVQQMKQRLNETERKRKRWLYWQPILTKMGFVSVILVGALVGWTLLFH
Assay: HiBiT Degradation B16F10.4 PTPN2
Type: cell-based
Details: 24.0 hours
Listed next: entries and their corresponding DC50.

- compound: "Cn1c(=O)n(C2CCC(=O)NC2=O)c2ccc(C3CN(CC(=O)Nc4cccc(CS(=O)(=O)N5CC[C@H](Nc6cccc(-c7sc(C(=O)O)c(OCC(=O)O)c7Cl)c6)CC5(C)C)c4)C3)cc21 (some centres unmarked) [Example 184]"
  DC50: "50 to 200 nM"
- compound: "CC1(C)C[C@@H](Nc2cccc(-c3sc(C(=O)O)c(OCC(=O)O)c3Cl)c2)CCN1S(=O)(=O)Cc1cccc(NC(=O)N2CCC(c3ccc4c(c3)C3(CC3)C(=O)N4C3CCC(=O)NC3=O)CC2)c1 (some centres unmarked) [Example 150]"
  DC50: "50 to 200 nM"
- compound: "CC1(C)C[C@H](Nc2cccc(-c3sc(C(=O)O)c(OCC(=O)O)c3Cl)c2)CCN1S(=O)(=O)Cc1ccc(F)c(NC(=O)C2CN(C(=O)CNc3cccc4c3CN(C3CCC(=O)NC3=O)C4=O)C2)c1 (some centres unmarked) [Example 108]"
  DC50: "≥ 1000 nM"
- compound: "CC1(C)C[C@@H](Nc2cccc(-c3sc(C(=O)O)c(OCC(=O)O)c3Cl)c2)CCN1S(=O)(=O)Cc1cccc(NC(=O)C2CCN(C(=O)CNc3ccc4c(c3)C(=O)N(C3CCC(=O)NC3=O)C4=O)CC2)c1 (some centres unmarked) [Example 43]"
  DC50: "≥ 1000 nM"
- compound: "Cn1c(=O)n(C2CCC(=O)NC2=O)c2ccc(C#CCNC(=O)Nc3cccc(CS(=O)(=O)N4CC[C@H](Nc5cccc(-c6sc(C(=O)O)c(OCC(=O)O)c6Cl)c5)CC4(C)C)c3)cc21 (some centres unmarked) [Example 91]"
  DC50: "50 to 200 nM"
